Data provenance is patent US12492188B2.

Collected IC50 values appear next to each entry.
study.target: human TLR8 (Homo sapiens)
Construct: host or cells: HEK-Blue cells (HEK293-derived reporter line)
Sequence (Q9NR97 27-1041): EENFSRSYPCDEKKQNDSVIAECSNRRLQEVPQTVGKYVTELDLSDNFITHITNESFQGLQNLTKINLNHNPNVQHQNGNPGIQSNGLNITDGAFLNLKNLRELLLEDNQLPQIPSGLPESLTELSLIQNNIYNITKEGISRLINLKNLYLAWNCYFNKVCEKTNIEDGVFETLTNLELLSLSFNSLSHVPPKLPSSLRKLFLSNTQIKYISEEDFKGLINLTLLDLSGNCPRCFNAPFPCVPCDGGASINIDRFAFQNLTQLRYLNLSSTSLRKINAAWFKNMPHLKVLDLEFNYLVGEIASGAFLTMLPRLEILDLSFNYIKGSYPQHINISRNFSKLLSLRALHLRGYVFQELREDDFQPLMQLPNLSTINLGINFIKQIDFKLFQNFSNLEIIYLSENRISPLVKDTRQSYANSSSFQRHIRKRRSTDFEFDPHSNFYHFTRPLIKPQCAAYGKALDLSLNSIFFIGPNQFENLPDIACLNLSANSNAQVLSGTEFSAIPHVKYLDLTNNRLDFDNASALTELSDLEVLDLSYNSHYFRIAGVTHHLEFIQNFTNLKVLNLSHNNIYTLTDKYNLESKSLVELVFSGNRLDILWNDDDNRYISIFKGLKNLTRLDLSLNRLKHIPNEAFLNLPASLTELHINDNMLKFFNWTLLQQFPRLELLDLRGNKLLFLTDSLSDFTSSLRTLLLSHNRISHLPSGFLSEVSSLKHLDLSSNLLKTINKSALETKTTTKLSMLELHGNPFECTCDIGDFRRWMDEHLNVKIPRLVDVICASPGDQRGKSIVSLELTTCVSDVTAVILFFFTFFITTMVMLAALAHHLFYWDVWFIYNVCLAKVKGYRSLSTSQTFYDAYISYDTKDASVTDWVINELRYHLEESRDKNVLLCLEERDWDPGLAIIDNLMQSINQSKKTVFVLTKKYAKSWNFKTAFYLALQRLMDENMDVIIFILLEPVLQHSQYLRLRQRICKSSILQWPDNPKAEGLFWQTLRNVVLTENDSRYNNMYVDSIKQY
assay.summary: TLR8 inhibition reporter assay (HEK-Blue cells, secreted embryonic alkaline phosphatase reporter)
Format: cell-based
run.conditions: HEK-Blue cells overexpressing human TLR8, stimulated with R848 15.9 μM; read-out: TLR 8 IC50

Below: 3 compounds and their reported IC50.
Cc1cc(C2CCN(C3CC4CCC(C3)N4C(C)C)CC2)cc2c1nc(-c1ccc(S(C)(=O)=O)cc1)n2C (single isomer, unassigned) [Example 84]
> 25 µM
Cc1cc(C2CCN(C3CCN(c4ccccc4)CC3)CC2)cc2c1nc(-c1ccc(S(C)(=O)=O)cc1)n2C
> 50 µM
Cn1c(-c2ccc(S(C)(=O)=O)cc2)nc2ccc(C3CCN(C4CC5CCC(C4)N5C4CCOCC4)CC3)c(F)c21 (stereo not drawn) [Example 274]
> 50 µM

Summary for this compound, COCCN1C2CCC1CC(N1CCC(c3cc(C)c4nc(-c5ccc(S(C)(=O)=O)cc5)n(C)c4c3)CC1)C2 (single isomer, unassigned) [Example 162] : IC50 is > 25 µM

The reported value for Cn1c(-c2ccc(S(C)(=O)=O)cc2)nc2ccc(C3CCN(C4CCCN(C5COC5)CC4)CC3)c(F)c21 (stereo not drawn) [Example 314] in terms of IC50 is > 50 µM

Measured IC50 of `COCCN1CCC(N2CCC(c3cc(F)c4nc(-c5ccc(S(C)(=O)=O)cc5)n(C)c4c3)CC2)CC1` : > 50 µM

`Cc1cc(-c2nc3c(C)cc(C4CCN(C5CCN(CC(C)C)CC5)CC4)cc3[nH]2)cc(C)n1` has a reported IC50 of > 50 µM

Sure, the documented IC50 for COc1cc(-c2nc3c(C)cc(C4CCN(C5CC6CCC(C5)N6C5CC5)CC4)cc3n2C)cn2ncnc12 (stereo not drawn) is 0.7 µM

According to the records, this compound COCCN1C2CCC1CC(N1CCC(c3ccc4nc(-c5ccc(S(C)(=O)=O)cc5)n(C)c4c3F)CC1)C2 (single isomer, unassigned) [Example 276] displays IC50 of > 50 µM

Item: `CC(C)CN1CCC(N2CCC(c3cc(F)c4nc(-c5ccc(S(C)(=O)=O)cc5)n(C5CC5)c4c3)CC2)CC1` | IC50: > 50 µM

// sample CC(C)CN1CCCC(N2CCC(c3cc(F)c4nc(-c5ccc(S(C)(=O)=O)cc5)n(C)c4c3)CC2)CC1 (stereo not drawn) [Example 296] , its IC50 was > 50 µM

The compound listed as COc1ccc(-c2nc3c(C)cc(C4CCN(C5CCN(C6CC6)CC5)CC4)cc3n2C)cc1OC [Example 46, tris(2,2,2-trifluoroacetate)] shows IC50 equal to > 50 µM

Lookup result for `Cn1c(-c2ccc(S(C)(=O)=O)cc2)nc2cc(C3CCN(C4CCN(C5CCC5)CC4)CC3)cc(F)c21` ; measured IC50: > 50 µM

So, `Cn1c(-c2ccc(S(C)(=O)=O)cc2)nc2ccc(C3CCN(C4CCN(CC5CC5)CC4)CC3)c(F)c21` ? Its IC50 was > 50 µM

Field IC50 (entry Cn1c(-c2ccc(S(C)(=O)=O)cc2)nc2c(F)cc(C3CCN(C4CC5CCC(C4)N5C4CCC4)CC3)cc21 (single isomer, unassigned) [Example 292] ) reads > 50 µM

Looking up `CC(C)N1CCC(N2CCC(c3cc4nc(-c5ccc(S(C)(=O)=O)cc5)n(C)c4cc3F)CC2)CC1` , I see its IC50 listed as > 50 µM

Reported IC50 for `Cc1ccc(CN2CCC(c3cc(C)c4nc(-c5ccc(S(C)(=O)=O)cc5)n(C)c4c3)CC2)cn1` was 8.4 µM

For this compound ( `Cn1c(-c2ccc(S(C)(=O)=O)cc2)nc2cc(C3CCN(C4CCN(C5CC5)CC4)CC3)cc(F)c21` ), measured IC50 is > 50 µM

The compound identified as `Cn1c(-c2ccc(S(C)(=O)=O)cc2)nc2cc(C3CCN(C4CCN(C5CC5)CC4)CC3)c(F)cc21` registered its IC50 at > 50 µM

Note to self: IC50 recorded for CC(C)N1CCCC(N2CCC(c3ccc4nc(-c5ccc(S(C)(=O)=O)cc5)n(C)c4c3F)CC2)CC1 (single isomer, unassigned) [Example 113] was > 50 µM

For reference, reported IC50 for Cn1c(-c2ccc(S(C)(=O)=O)cc2)nc2cc(C3CCN(C4CC5CCC(C4)N5C4CCOCC4)CC3)cc(F)c21 (stereo not drawn) [Example 211] stands at > 50 µM

###

study.target: human TLR9 (Homo sapiens)
Construct: host or cells: HEK-Blue cells (HEK293-derived reporter line)
assay.summary: TLR9 inhibition reporter assay (HEK-Blue cells, secreted embryonic alkaline phosphatase reporter)
Type: cell-based
run.conditions: HEK-Blue human TLR9 reporter cells
reported.endpoint: pIC50
The quantity pIC50 is defined as the negative base-10 logarithm of the molar concentration.

Solved cases (2 shown):
CS(=O)(=O)c1ccc(-c2nc3c(F)cc(C4CCN(C5CC6CCC(C5)N6C5CCC5)CC4)cc3n2C2CC2)cc1 (single isomer, unassigned) [Example 326]
7.64
Cc1cc(C2CCN(C3CC4CCC(C3)N4C3CCC3)CC2)cc2[nH]c(-c3ccc(S(C)(=O)=O)cc3)nc12 (stereo not drawn) [Example 334]
6.52

Could you now look at the following compound, please?
Form field pIC50, entry Cc1cc2nc(-c3ccc(S(C)(=O)=O)cc3)n(C)c2cc1C1CCN(C2CCN(CC(C)C)CC2)CC1 [Example 331] : 6.85

###

pIC50 values, listed per item
study.target: UniProt:Q9NYK1
Sequence (Q9NYK1 27-1049): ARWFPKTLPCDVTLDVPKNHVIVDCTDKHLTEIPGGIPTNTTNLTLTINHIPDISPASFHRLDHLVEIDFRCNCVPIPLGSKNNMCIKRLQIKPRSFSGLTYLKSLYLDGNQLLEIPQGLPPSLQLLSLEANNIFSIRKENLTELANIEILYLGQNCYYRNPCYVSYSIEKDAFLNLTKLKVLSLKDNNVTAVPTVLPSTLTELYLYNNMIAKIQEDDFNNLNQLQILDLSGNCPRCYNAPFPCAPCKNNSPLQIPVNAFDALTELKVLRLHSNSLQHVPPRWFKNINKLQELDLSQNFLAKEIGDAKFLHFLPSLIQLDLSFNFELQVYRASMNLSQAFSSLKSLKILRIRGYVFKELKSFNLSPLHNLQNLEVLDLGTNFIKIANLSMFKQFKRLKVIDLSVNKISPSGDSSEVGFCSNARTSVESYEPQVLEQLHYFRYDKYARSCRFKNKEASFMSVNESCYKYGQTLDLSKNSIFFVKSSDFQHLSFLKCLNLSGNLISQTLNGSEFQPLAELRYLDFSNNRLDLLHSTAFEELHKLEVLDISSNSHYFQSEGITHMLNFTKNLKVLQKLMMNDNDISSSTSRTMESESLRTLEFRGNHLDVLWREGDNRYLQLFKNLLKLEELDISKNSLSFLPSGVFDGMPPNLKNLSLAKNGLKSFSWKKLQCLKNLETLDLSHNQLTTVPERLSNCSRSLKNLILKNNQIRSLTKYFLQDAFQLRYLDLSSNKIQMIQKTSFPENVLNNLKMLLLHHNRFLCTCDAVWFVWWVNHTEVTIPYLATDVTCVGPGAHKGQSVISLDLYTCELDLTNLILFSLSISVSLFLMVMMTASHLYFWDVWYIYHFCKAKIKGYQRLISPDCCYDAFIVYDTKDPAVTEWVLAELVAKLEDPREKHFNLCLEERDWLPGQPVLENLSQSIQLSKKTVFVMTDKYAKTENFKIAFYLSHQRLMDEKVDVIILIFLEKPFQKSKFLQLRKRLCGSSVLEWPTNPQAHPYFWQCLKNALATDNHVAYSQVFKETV
assay.summary: TLR7 inhibition reporter assay (HEK-Blue cells, secreted embryonic alkaline phosphatase reporter)
run.conditions: HEK-Blue cells overexpressing human TLR7, stimulated with gardiquimod 7.5 μM; read-out: TLR 7 IC50
pIC50: −log10 of the molar value.

pIC50 reading for Cn1c(-c2ccc(S(C)(=O)=O)cc2)nc2c(F)c(C3CCN(C4CC5CCC(C4)N5CC4CC4)CC3)ccc21 (single isomer, unassigned) [Example 192] : < 4.30

Value of pIC50 reported for the compound Cc1cc(-c2ccc(CN3CCN(C(C)C)CC3)cc2)cc2c1nc(-c1ccc(S(C)(=O)=O)cc1)n2C [Example 413] is < 4.30

Value of pIC50 reported for the compound Cc1cc(C2CCN(C3CC4CCC(C3)N4CC(C)C)CC2)cc2c1nc(-c1ccc(S(C)(=O)=O)c(F)c1)n2C (centres unmarked) [Example 342] is 4.90

For reference, reported pIC50 for COc1ccc(-c2nc3ccc(C4CCN(C5CCN(C6CC6)CC5)CC4)cc3n2C(C)C)cc1OC [Example 31] stands at < 4.30

// pIC50 lookup, compound = Cn1c(-c2ccc(S(C)(=O)=O)cc2)nc2ccc(C3CCN(C4CCCN(C5CCOCC5)CC4)CC3)c(F)c21 (centres unmarked) [Example 317] , result: < 4.30

The compound listed as CC(C)CN1C2CCC1CC(N1CCC(c3ccc4c(nc(-c5ccc(S(C)(=O)=O)cc5)n4C)c3F)CC1)C2 (single isomer, unassigned) [Example 190] shows pIC50 equal to < 4.30

Quick note, pIC50 for CS(=O)(=O)c1ccc(-c2nc3ccc(C4CCN(C5CCN(C6COC6)CC5)CC4)c(F)c3[nH]2)cc1 [Example 181] landed at < 4.30

The compound identified as Cn1c(-c2ccc(S(C)(=O)=O)cc2)nc2cc(C3CCN(C4CCN(C5CC5)CC4)CC3)c(F)cc21 [Example 241] registered its pIC50 at < 4.30

###

Reported pIC50 is given for each of the following compounds.
study.target: human TLR9 (Homo sapiens)
Construct: host or cells: HEK-Blue cells (HEK293-derived reporter line)
Sequence (Q9NR96 26-1032): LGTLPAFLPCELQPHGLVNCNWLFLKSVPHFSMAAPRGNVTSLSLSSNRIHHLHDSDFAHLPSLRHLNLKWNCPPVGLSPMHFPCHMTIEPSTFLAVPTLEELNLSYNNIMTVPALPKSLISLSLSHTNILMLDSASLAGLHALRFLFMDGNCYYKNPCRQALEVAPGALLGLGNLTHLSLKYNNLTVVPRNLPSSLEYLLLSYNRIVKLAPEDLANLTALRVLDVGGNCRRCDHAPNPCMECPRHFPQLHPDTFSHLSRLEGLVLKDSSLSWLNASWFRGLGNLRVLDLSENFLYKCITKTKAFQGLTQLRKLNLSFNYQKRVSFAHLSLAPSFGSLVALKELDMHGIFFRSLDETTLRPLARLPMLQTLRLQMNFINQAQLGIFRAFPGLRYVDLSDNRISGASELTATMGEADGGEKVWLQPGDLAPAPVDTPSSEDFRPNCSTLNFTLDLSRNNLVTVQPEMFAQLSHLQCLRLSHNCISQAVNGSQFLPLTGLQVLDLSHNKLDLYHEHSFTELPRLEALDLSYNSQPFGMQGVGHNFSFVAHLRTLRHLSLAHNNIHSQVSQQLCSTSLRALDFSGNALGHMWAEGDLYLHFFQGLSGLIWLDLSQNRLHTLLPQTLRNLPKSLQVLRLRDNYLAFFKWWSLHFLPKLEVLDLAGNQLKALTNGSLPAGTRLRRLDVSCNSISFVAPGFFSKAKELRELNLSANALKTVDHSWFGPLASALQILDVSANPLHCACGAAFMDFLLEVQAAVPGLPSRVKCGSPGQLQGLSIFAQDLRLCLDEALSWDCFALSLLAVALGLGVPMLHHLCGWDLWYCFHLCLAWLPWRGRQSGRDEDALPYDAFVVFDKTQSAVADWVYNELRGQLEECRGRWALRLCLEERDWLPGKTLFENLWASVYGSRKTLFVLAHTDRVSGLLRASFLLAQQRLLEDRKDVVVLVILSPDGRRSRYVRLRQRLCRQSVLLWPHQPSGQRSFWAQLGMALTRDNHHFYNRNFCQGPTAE
assay.summary: TLR9 inhibition reporter assay (HEK-Blue cells, secreted embryonic alkaline phosphatase reporter)
Type: cell-based
run.conditions: HEK-Blue cells overexpressing human TLR9, stimulated with ODN2006 5 nM, 22 hour incubation, reporter readout
Please keep in mind that pIC50 is minus log10 of the molar concentration; only the number is needed.

Guide cases for pIC50, answers given:
COc1ccc(-c2nc3c(C)cc(C4CCN(C5CC6(C5)CN(CC5CC5)C6)CC4)cc3n2C)cc1OC [Example 48]
7.72
Cc1cc(C2CCN(C3CCN(CC(C)C)CC3)CC2)cc2[nH]c(-c3ccc(OC(F)(F)F)c(Cl)c3)nc12 [Example 73, tris(2,2,2-trifluoroacetate)]
6.57
Cc1cc(-c2ccc(C3CCN(C)CC3)cc2)cc2c1nc(-c1ccc(S(C)(=O)=O)cc1)n2C [Example 363]
6.85
CCn1c(-c2ccc(OC)c(OC)c2)nc2ccc(C3CCN(C4CCN(C(C)C)CC4)CC3)cc21 (single isomer, unassigned) [Example 8]
6.68

Sure, the documented pIC50 for COc1ccc(-c2nc3c(C)cc(C4CCN(C5CCN(CC(C)C)CC5)CC4)cc3[nH]2)cc1OC [Example 43, tris(2,2,2-trifluoroacetate)] is 8.01

COc1cc(-c2nc3c(C)cc(C4CCN(C5CC6CCC(C5)N6CC(C)C)CC4)cc3n2C)cn2ncnc12 (centres unmarked) [Example 126] has a reported pIC50 of 6.23

Lab note: measured pIC50 of Cc1cc(-c2ccc(CN3CCC(N(C)C)CC3)cc2)cc2c1nc(-c1ccc(S(C)(=O)=O)cc1)n2C [Example 385] was 6.74
